Kindly supply the reported concentration at 2 h values for the records listed here.
# TEST NAME: absorption studies in human volunteers (oral)
# SETTINGS: serum, 500 mg
Quick note: give the figure in ng/mL, leave out the unit.

### Prompt Note down concentration at 2 h recorded for CC1(C)S[C@@H]2[C@H](NC(=O)[C@H](N)c3ccc(O)cc3)C(=O)N2[C@H]1C(=O)O
### Response 10800

### Prompt Note down concentration at 2 h recorded for CC1(C)S[C@@H]2C(NC(=O)C(N)c3cccc(O)c3)C(=O)N2[C@H]1C(=O)O (some centres unmarked)
### Response 2860

====

For E.Coli, measured MIC is reported for the entries below.
Quick note: give the figure in µg/mL, leave out the unit.

### Prompt Note down MIC recorded for CC1(C)S[C@@H]2[C@H](NC(=O)[C@@H](N)c3ccccc3)C(=O)N2[C@H]1C(=O)O [None +, reference compound]
### Response 12.5

### Prompt Note down MIC recorded for CC1(C)S[C@@H]2[C@H](NC(=O)[C@@H](N)c3ccc(O)cc3)C(=O)N2[C@H]1C(=O)O
### Response 25

### Prompt Note down MIC recorded for CC1(C)S[C@@H]2[C@H](NC(=O)[C@H](N)c3ccc(O)cc3)C(=O)N2[C@H]1C(=O)O
### Response 5

### Prompt Note down MIC recorded for CC1(C)S[C@@H]2[C@H](NC(=O)[C@H](N)c3ccccc3)C(=O)N2[C@H]1C(=O)O [Ampicillin, D(-)-epimer of α-aminobenzyl penicillin]
### Response 5
